system: A498; assay: NCI tumour cell line growth inhibition, 48 h
Active and inactive are the calls of the source. Rule as the data show it: active = GI50 up to about 1.1 µM and inactive = higher.
QUANTITY: GI50

Sample answers from the record:
INSERT INTO assay_data (compound, quantity, result) VALUES
  ('CCOC(=O)c1cnccc1CC1(C#N)c2ccccc2C=CN1C(=O)c1ccccc1 (stereo not drawn)', 'GI50', '96.4 µM (inactive)'),
  ('CNc1nc2n(CCO)c(-c3ccccc3)c(-c3ccccc3)nc-2c(=O)n1', 'GI50', '> 50 µM (inactive)'),
  ('C[C@@H]1CC[C@@]2(OC1)O[C@H]1[C@@H](O)[C@H]3[C@@H]4CC[C@H]5C[C@@H](O[C@@H]6O[C@H](CO)[C@H](O[C@@H]7O[C@H](CO)C(O)[C@H](O[C@@H]8OC[C@@H](O)[C@H](O)[C@H]8O)[C@H]7O[C@@H]7O[C@H](CO)[C@H](O)[C@H](O[C@@H]8O[C@H](CO)[C@@H](O)[C@H](O)[C@H]8O)[C@H]7O)[C@H](O)[C@H]6O)[C@H](O)C[C@]5(C)[C@H]4CC[C@]3(C)[C@H]1[C@@H]2C (stereo partly drawn)', 'GI50', '6.18 µM (inactive)'),
  ('CCN(CC)CCN(C)c1ccc(CO)c2c1c(=O)c1ccccc1[s+]2[O-] (stereo not drawn)', 'GI50', '10.7 µM (inactive)'),
  ('N#CCCN(CCC#N)c1ccc(C(=N/c2ccc(F)cc2)/N=N/c2ccccc2)cc1', 'GI50', '> 100 µM (inactive)');

I'm hoping you can list GI50 for every compound here, please.
1. C/C(=N\NS(=O)(=O)c1ccc(C)cc1)C(CN1CCOCC1)C(c1ccccc1)c1c(O)c2ccccc2oc1=O (stereo not drawn)
2. Cc1cc2c(=O)c3ccccc3[nH]c2c(C(=O)O)c1C
3. C=CCC1=C(C)C[C@@H]2CCC(=O)C=C12
4. Clc1ccc(-c2nn3c(COc4ccc(OCc5nnc6sc(-c7ccc(Cl)cc7)nn56)c(Cl)c4)nnc3s2)cc1
5. CCN(CC)CCCC(C)Nc1ccnc2ccc3nn(C)nc3c12 (stereo not drawn)
6. N#CC(/C(=N/NC(=N)N)C(=O)Nc1ccccc1[N+](=O)[O-])c1nc(-c2ccc([N+](=O)[O-])cc2)cs1 (stereo not drawn)
7. CN(C)S(=O)(=O)n1cnc(CO)c1
8. CC(=O)Nc1ccc(S(=O)(=O)N/N=C/CN2C(=O)c3ccccc3C2=O)cc1

Completion:
["> 100 µM (inactive)", "> 100 µM (inactive)", "> 100 µM (inactive)", "32.7 µM (inactive)", "37 µM (inactive)", "> 100 µM (inactive)", "> 100 µM (inactive)", "> 100 µM (inactive)"]

// for each compound in input: emit GI50
1. COC(=O)c1c/c(=N\NC(=O)CC(=O)Nc2ccc(C)cc2)c2ccccc2o1
2. Cc1cc(=O)oc2cc(OCc3nc4ccccc4c(=O)n3-c3ccccc3)ccc12
3. O=C1OCCC1(Cc1ccc(Cl)cc1)Cc1ccc(Cl)cc1
4. CC1=C(C#N)S(=O)(=O)c2c(oc(C)c2C)N1
5. Cn1c(=O)nc2n(-c3ccc(F)cc3)c3ccccc3nc-2c1=O
6. O=C1C2C3C=CC(C2C(=O)N1CN1CCSCC1)C1C2C(=O)N(CN4CCSCC4)C(=O)C2C31 (stereo not drawn)
7. Nc1nc(Cl)c2ncn(Cc3ccccc3CCl)c2n1
8. CCOC(=O)NC(Nc1c(F)c(F)c(F)c(F)c1F)(C(F)(F)F)C(F)(F)F

Completion:
["> 100 µM (inactive)", "> 100 µM (inactive)", "46 µM (inactive)", "> 100 µM (inactive)", "32.6 µM (inactive)", "> 100 µM (inactive)", "20.5 µM (inactive)", "> 100 µM (inactive)"]

Go through the list and state GI50 for each entry.
1. O=c1c2cc([N+](=O)[O-])ccc2n2n1CCCC2
2. C=CCCCCCCCCCP(=O)(c1ccccc1)c1ccc2c(c1)OCCOCCOCCOCCO2 (stereo not drawn)
3. Cc1c(-c2ccccc2)c(C#N)c2nnn(-c3ccc(Cl)cc3)c(=O)n12
4. COc1cc(C2c3[nH]c4ccc(F)cc4c3C[C@H]3COC(=O)N23)cc(OC)c1O (stereo partly drawn)

Completion:
1: > 100 µM (inactive); 2: 14.2 µM (inactive); 3: 68.7 µM (inactive); 4: 6.71 µM (inactive)

For each entry beneath this line, provide reported GI50.
1. CCC(=O)c1ccc2[nH]c3c(C)c4c(O)cc(C)nc4c(C)c3c2c1
2. COC(=O)c1cc2c3c(ccc2[nH]1)N(C(=O)c1cc2cc(OC)c(OC)c(OC)c2[nH]1)CC3CCl (stereo not drawn)

Completion:
1: > 100 µM (inactive); 2: 42.5 µM (inactive)

Batch of 7 compounds: report GI50 for each.
1. CCCCCCCCCCCCCCCCCc1cccc(OCOCCOC)c1CO
2. CCOC(=O)c1cc(=O)c2ccnc3c2n1CCS3
3. Cn1c2c(c3ccccc31)C1CCCCC1C1C(=O)NC(=O)C21 (stereo not drawn)
4. C/C(=N\NC(N)=O)C(CN(C)C)C(c1ccccc1)c1c(O)c2ccccc2oc1=O (stereo not drawn)
5. O=C1c2ccccc2S(=O)(=O)c2cc(-c3nn[nH]n3)ccc21
6. O=C(O)CC(Cc1ccc2c(c1)OCO2)C(=O)O (stereo not drawn)
7. Fc1ccc(C(OCCN2CC3CC2CN3)c2ccc(F)cc2)cc1 (stereo not drawn)

Completion:
["> 100 µM (inactive)", "> 100 µM (inactive)", "22.5 µM (inactive)", "> 100 µM (inactive)", "> 100 µM (inactive)", "> 100 µM (inactive)", "44.9 µM (inactive)"]

I have 3 compounds here; please give me GI50 for each one.
1. O=C(CCc1ccc(O)c(O)c1)NCCc1cc(O)cc(OCc2ccccc2)c1
2. C=Cc1cc(OC)c2c(c1)c(=O)oc1c2cc(OC)c2c(O)ccc(C3OC(C)C(O)C(C)(O)C3O)c21 (stereo not drawn)
3. COc1ccc2c(C=O)c3n(c(=O)c2c1OC)CCc1cc2c(cc1-3)OCO2

Completion:
1: > 100 µM (inactive); 2: 0.0444 µM (active); 3: > 100 µM (inactive)

The measured GI50 associated with CC(=O)Nc1ccc(COC(O)CN2CCCCC2)cc1[N+](=O)[O-] (stereo not drawn) reads > 100 µM (inactive)
